Values compiled from patent EP0729956B1.

# Test system: ovariectomized rats
# Set-up: species or system Sprague Dawley rats
# study-conditions: rat, in vivo, po, 0.01 mg/kg
Where a name gives a salt, the structure may show the parent alone.
This section presents compounds with their documented Uterine EPO (V. max) values.

Oc1ccc(-c2sc3ccccc3c2Oc2ccc(OCCN3CCCC3)cc2)cc1	1.8
O=C(Oc1ccc(-c2sc3cc(OC(=O)c4ccccc4)ccc3c2Oc2ccc(OCCN3CCCCC3)cc2)cc1)c1ccccc1 [Example 43, hydrochloride]	3.3
Oc1ccc(-c2sc3cc(O)ccc3c2Oc2ccc(OCCN3CCOCC3)cc2)cc1 [Example 24, hydrochloride]	3.6
Oc1ccc(-c2sc3cc(O)ccc3c2Oc2ccc(OCCCN3CCCCC3)cc2)cc1 [Example 27, hydrochloride]	3.3
Oc1ccc(-c2sc3cc(O)ccc3c2Oc2ccc(OCCN3CCCCC3)cc2)cc1 [Example 20, hydrochloride]	0.9
CCN(CC)CCOc1ccc(Oc2c(-c3ccc(O)cc3)sc3cc(O)ccc23)cc1	3.3

INPUT: Recorded Uterine EPO (V. max) for CCS(=O)(=O)Oc1ccc(-c2sc3cc(OS(=O)(=O)CC)ccc3c2Oc2ccc(OCCN3CCCCC3)cc2)cc1 [Example 44, hydrochloride] , please?
OUTPUT: 3.6

====

# System: ovariectomized rats
# Set-up: species or system Sprague Dawley rats
# study-conditions: rat, in vivo, po, 0.01 mg/kg
Where a name gives a salt, the structure may show the parent alone.
outcome-measure: Uterine EPO (V. max)
Just the number.

Oc1ccc(-c2sc3cc(O)ccc3c2Oc2ccc(OCCN3CCCC3)cc2)cc1	1.2
Oc1ccc(-c2sc3cc(O)ccc3c2Oc2ccc(OCCN3CCCCC3)cc2)cc1 [Example 19]	2.1
CCN(CC)CCCOc1ccc(Oc2c(-c3ccc(O)cc3)sc3cc(O)ccc23)cc1 [Example 25, hydrochloride]	3.0

Now for a further compound.
INPUT: // returns reported Uterine EPO (V. max) for input CC(C)N(CCOc1ccc(Oc2c(-c3ccc(O)cc3)sc3cc(O)ccc23)cc1)C(C)C [Example 26, hydrochloride]
OUTPUT: 4.8

====

# System: ovariectomized rats
# method-description: Serum cholesterol analysis (OVX rat, 4-day dosing)
# Format: in vivo, Sprague Dawley rats
# study-conditions: Rattus norvegicus, po, 96 h, daily for 4 days, dose 10.0 mg/kg, read-out: Serum Cholesterol (% decrease vs. OVX)
Overview of reported inhibition in vivo at 10 mg/kg across a group of molecules:
Express the result in % but write the number alone.

Oc1ccc(-c2sc3ccccc3c2Oc2ccc(OCCN3CCCCCC3)cc2)cc1	65.3

INPUT: inhibition in vivo at 10 mg/kg lookup needed for COc1ccc(-c2sc3cc(OC)ccc3c2Oc2ccc(OCCN3CCCCC3)cc2)cc1 , thanks.
OUTPUT: 38.9

INPUT: inhibition in vivo at 10 mg/kg lookup needed for Oc1ccc(-c2sc3cc(O)ccc3c2Sc2ccc(OCCN3CCCCC3)cc2)cc1 , thanks.
OUTPUT: 58.7

INPUT: Any idea what its inhibition in vivo at 10 mg/kg is? The molecule is CCN(CC)CCOc1ccc(Oc2c(-c3ccc(O)cc3)sc3ccccc23)cc1
OUTPUT: 60.2

====

# Tested on: ovariectomized rats
# Design: species or system Sprague Dawley rats
# study-conditions: rat, in vivo, po, 0.1 mg/kg
Structures can show the parent of a compound that is named as a salt.
# Uterine EPO (V. max) annotations
// return just the number, without any unit appended

CCS(=O)(=O)Oc1ccc(-c2sc3cc(OS(=O)(=O)CC)ccc3c2Oc2ccc(OCCN3CCCCC3)cc2)cc1 [Example 44, hydrochloride]	88.5

INPUT: Can you share its Uterine EPO (V. max)? I mean this compound: O=C(Oc1ccc(-c2sc3cc(OC(=O)c4ccccc4)ccc3c2Oc2ccc(OCCN3CCCCC3)cc2)cc1)c1ccccc1 [Example 43, hydrochloride]
OUTPUT: 4.8

INPUT: Uterine EPO (V. max) for Oc1ccc(-c2sc3cc(O)ccc3c2Oc2ccc(OCCN3CCCC3)cc2)cc1 [Example 21] ?
OUTPUT: 4.8

INPUT: Request the reported Uterine EPO (V. max) associated with C#C[C@]1(O)CC[C@H]2[C@@H]3CCc4cc(O)ccc4[C@H]3CC[C@@]21C [EE2, 17a-ethynyl estradiol, reference compound]
OUTPUT: 308.1

INPUT: Return reported Uterine EPO (V. max); argument: CCN(CC)CCOc1ccc(Oc2c(-c3ccc(O)cc3)sc3cc(O)ccc23)cc1 [Example 23]
OUTPUT: 84.3

INPUT: State the recorded Uterine EPO (V. max) for this entry: CCN(CC)CCOc1ccc(Oc2c(-c3ccc(O)cc3)sc3ccccc23)cc1 [Example 5]
OUTPUT: 7.2

INPUT: Name the recorded Uterine EPO (V. max) for Oc1ccc(-c2sc3cc(O)ccc3c2Oc2ccc(OCCN3CCCCC3)cc2)cc1 [Example 19] .
OUTPUT: 2.4
